Experiment: CelltiterGlo viability cell assay
Type: cell-based
Settings: human, HCC1806 breast cancer cells, HCC1806, 3 day, 1 uM; read-out: viability Replicate 1
property.measured: viability at 3 day, 1 µM (%)

molecule="COc1cc(OC)cc(-c2noc(N3CCN(C)C4(CCN(c5ccnc(C)c5)CC4)C3)n2)c1 [MRK-740]" property_measured="viability at 3 day, 1 µM" unit=% endpoint_result=104

====

Assay: CelltiterGlo viability cell assay
Type: cell-based
Details: human, HCC1806 breast cancer cells, HCC1806, 6 day, 1 uM; read-out: viability Replicate 2
Excerpt: Supplementary Figure 13. […] Viability of (a) Multiple Myeloma lines and (b) Breast Cancer cell lines following 3 or 6 days treatment with […] manufacturer’s instructions as described in the Supplementary methods. Data are normalized to DMSO control. N=3 biological replicates, +/- SEM. Source data are provided as a Source Data […] CelltiterGlo viability cell assay […]
property.measured: viability at 6 day, 1 µM (%)

compound_string=COc1cc(OC)cc(-c2noc(N3CCN(C)C4(CCN(c5ccnc(C)c5)CC4)C3)n2)c1 property_measured="viability at 6 day, 1 µM" endpoint_result=101
